target: Protein cereblon/Serine/threonine-protein kinase B-raf (Homo sapiens, UniProt P15056+Q96SW2, V600E); experiment: Protac activity at CRBN/BRAF V600E mutant (unknown origin) assessed as BRAF V600E degradation by HiBit cellular BRAF V600E degradation assay
Sequence (P15056 2-766 V600E limits assumed, stated change not applied): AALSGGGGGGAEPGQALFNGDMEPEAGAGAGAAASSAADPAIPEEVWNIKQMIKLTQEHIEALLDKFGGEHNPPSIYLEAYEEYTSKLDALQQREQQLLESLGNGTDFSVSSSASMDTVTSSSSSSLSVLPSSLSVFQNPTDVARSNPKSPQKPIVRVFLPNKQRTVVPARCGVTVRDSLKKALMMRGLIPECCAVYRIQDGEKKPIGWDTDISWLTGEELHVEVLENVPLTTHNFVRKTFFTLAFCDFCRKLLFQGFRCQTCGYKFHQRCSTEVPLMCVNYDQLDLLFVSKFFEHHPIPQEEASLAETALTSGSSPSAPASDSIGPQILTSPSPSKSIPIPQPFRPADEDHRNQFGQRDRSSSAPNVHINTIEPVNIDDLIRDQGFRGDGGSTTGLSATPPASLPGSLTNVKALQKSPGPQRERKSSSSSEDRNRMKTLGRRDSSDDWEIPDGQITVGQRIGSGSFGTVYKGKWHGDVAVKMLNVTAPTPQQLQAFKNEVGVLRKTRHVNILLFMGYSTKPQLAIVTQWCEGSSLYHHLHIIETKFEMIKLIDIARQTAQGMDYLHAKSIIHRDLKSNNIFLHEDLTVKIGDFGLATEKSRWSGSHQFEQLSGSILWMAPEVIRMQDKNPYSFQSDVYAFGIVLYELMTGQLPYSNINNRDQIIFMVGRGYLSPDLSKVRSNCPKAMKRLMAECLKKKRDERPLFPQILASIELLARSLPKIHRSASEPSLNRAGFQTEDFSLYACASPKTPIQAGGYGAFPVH
Sequence (Q96SW2 whole entry, stated change not applied): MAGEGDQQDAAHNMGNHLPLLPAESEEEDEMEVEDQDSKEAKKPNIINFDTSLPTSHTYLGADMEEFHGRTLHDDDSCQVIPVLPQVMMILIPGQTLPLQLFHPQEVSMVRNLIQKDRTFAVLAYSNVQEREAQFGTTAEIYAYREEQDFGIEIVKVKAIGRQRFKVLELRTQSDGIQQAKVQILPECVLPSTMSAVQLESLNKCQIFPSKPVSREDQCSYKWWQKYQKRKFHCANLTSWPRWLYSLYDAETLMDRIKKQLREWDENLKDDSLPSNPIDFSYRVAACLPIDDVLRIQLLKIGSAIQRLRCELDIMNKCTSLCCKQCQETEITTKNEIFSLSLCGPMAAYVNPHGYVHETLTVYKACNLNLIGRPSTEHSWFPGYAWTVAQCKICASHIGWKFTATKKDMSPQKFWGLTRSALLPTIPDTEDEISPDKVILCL
endpoint: DC50 (nM)

CCN(C)S(=O)(=O)Nc1ccc(F)c(C(=O)c2c[nH]c3ncc(-c4cnc(N5CCN(C(=O)CCCOc6cccc7c6C(=O)N(C6CCC(=O)NC6=O)C7=O)CC5)nc4)cc23)c1F (stereo unspecified) : 20
CCN(C)S(=O)(=O)Nc1ccc(F)c(C(=O)c2c[nH]c3ncc(-c4ccc(N5CCN(C(=O)CCCNc6cccc7c6C(=O)N(C6CCC(=O)NC6=O)C7=O)CC5)nc4)cc23)c1F (stereo unspecified) : 26
CCN(C)S(=O)(=O)Nc1ccc(F)c(C(=O)c2c[nH]c3ncc(-c4ccc(N5CCN(C(=O)[C@H]6C[C@H](Nc7cccc8c7C(=O)N(C7CCC(=O)NC7=O)C8=O)C6)CC5)nc4)cc23)c1F (stereo partly specified) : 10
CCN(C)S(=O)(=O)Nc1ccc(F)c(C(=O)c2c[nH]c3ncc(-c4ccc(N5CCN(C(=O)[C@H]6C[C@H](Nc7cccc8c7C(=O)N(C7CCC(=O)NC7=O)C8=O)C6)CC5)cc4)cc23)c1F (stereo partly specified) : 23
CCN(C)S(=O)(=O)Nc1ccc(F)c(C(=O)c2c[nH]c3ncc(-c4ccc(N5CCN(C(=O)CCCOc6cccc7c6C(=O)N(C6CCC(=O)NC6=O)C7=O)CC5)nc4)cc23)c1F (stereo unspecified) : 10
CCN(C)S(=O)(=O)Nc1ccc(F)c(C(=O)c2c[nH]c3ncc(-c4ccc(N5CCN(C(=O)CCCOc6cccc7c6C(=O)N(C6CCC(=O)NC6=O)C7=O)CC5)cc4)cc23)c1F (stereo unspecified) : 16
